Target: T1, ScpA_(S512A,D889A) (Streptococcus pyogenes, UniProt P15926 31-1032, S512A | D889A)
T1 construct: Made by QuikChange II from pGEX ScpA(31-1032); also called D889A_(S512A); source: details in Supplemental Information SI1 and SI2
T1 sequence (looked up): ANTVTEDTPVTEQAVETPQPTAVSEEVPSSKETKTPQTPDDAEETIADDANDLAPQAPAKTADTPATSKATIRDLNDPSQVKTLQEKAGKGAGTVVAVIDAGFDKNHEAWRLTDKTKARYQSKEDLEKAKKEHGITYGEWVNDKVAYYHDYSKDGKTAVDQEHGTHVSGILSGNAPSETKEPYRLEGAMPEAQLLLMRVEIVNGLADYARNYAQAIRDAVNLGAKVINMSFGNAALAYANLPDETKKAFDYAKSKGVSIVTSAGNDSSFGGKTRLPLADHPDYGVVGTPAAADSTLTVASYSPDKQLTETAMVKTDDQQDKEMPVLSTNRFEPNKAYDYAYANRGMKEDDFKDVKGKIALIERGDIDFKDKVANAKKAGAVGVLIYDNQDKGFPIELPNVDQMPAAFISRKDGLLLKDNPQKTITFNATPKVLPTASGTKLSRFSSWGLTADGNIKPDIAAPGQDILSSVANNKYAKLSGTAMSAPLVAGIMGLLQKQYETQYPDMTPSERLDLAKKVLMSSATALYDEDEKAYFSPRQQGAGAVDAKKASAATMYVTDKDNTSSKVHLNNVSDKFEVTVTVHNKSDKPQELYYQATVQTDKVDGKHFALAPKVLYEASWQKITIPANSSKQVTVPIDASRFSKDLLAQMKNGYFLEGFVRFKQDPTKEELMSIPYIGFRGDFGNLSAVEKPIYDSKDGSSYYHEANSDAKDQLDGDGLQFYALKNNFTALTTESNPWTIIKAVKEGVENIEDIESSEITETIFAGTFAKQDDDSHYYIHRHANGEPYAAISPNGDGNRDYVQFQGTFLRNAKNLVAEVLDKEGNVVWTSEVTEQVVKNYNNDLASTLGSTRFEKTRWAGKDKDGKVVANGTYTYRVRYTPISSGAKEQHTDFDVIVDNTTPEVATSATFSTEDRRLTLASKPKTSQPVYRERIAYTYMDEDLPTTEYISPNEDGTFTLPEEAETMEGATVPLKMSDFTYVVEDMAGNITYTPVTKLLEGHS
Experiment: SPR; BIAcore X100, NTA sensor chip with about 20-25 RU of immobilised His-tagged C5a form (ligand), ScpA form flowed as ligate at 30 uL/min, 25 °C, 10 mM Hepes-KOH pH 7.4, 150 mM NaCl, 0.005% Tween 20, 50 uM EDTA; global fit, 1:1 Langmuir model with drifting baseline; triplicate
Settings: both partners purified
READOUT KIND: Kd

>>> result("Recombinant human C5a (rhC5a) (natural protein, UniProt P01031 678-751, looked up, human complement C5a anaphylatoxin, residues 1-74 (core 1-67 and tail 68-74); also called full length rhC5a; substrate; not shown: His6, N-terminal, kept) TLQKKIEEIAAKYKHSVVKKCCYDGACVNNDETCEQRAARISLGPRCIKAFTECCVVASQLRANISHKDMQLGR")
"27 nM"

Numbers sourced from paper PMC9464890.
